Tested on: human colorectal adenocarcinoma (DLD-1) cells
method_description: MTT cytotoxicity assay, DLD-1
Format: cell-based
test_settings: cancer cell, 48 h, means of three independent experiments
From the text: The cells studied were obtained from the American Type Culture Collection (ATCC, Manassas, VA), and included human colorectal adenocarcinoma (DLD-1), cervix carcinoma (HeLa), breast adenocarcinoma (MDA-MB-231), colon adenocarcinoma (HT-29), endometrial adenocarcinoma (ECC-1), prostate cancer (DU-145 and PC-3), normal embryonic kidney (HEK-293), normal prostate epithelium (PNT-1A), and normal retinal pigment epithelium (ARPE-19) cells. […]
pIC50: −log10 of the molar value.
# Lookup of reported pIC50 keyed by entry
parameter_measured: pIC50

> print(dat)
                                    compound  test.result
 1  COc1ccc(N=N[N]([Ag][O]C(C)=O)c2cccc(S(N)(=O)=O)c2)cc1OC         3.76
 2  COc1ccc([N+]2=N[N](c3cccc(S(N)(=O)=O)c3)[Cu-]2([O]C(C)=O)[O]C(C)=O)cc1         4.37
 3  COc1ccc(N=N[N]([Ag][O]C(C)=O)c2cccc(S(N)(=O)=O)c2)cc1         4.50
 4  CC(=O)[O][Cu-]1([O]C(C)=O)[N](c2cccc(S(N)(=O)=O)c2)N=[N+]1c1ccc(C(=O)O)cc1         4.19
 5  COc1ccc([N+]2=N[N](c3cccc(S(N)(=O)=O)c3)[Cu-]2([O]C(C)=O)[O]C(C)=O)cc1OC         4.23
 6  CC(=O)[O][Cu-]1([O]C(C)=O)[N](c2cccc(S(N)(=O)=O)c2)N=[N+]1c1ccc(F)cc1         4.33
 7  CC(=O)[O][Cu-]1([O]C(C)=O)[N](c2cccc(S(N)(=O)=O)c2)N=[N+]1c1cc(C)cc(C)c1         4.23
 8  CC(=O)[O][Ag][N](N=Nc1ccc(F)cc1)c1cccc(S(N)(=O)=O)c1         3.55
 9  CC(=O)[O][Ag][N](N=Nc1ccc(C(=O)O)cc1)c1cccc(S(N)(=O)=O)c1         5.48
10  CC(=O)[O][Ag][N](N=Nc1cc(C)cc(C)c1)c1cccc(S(N)(=O)=O)c1         3.96

###

System: prostate cancer (DU-145) cells
method_description: MTT cytotoxicity assay, DU-145
Format: cell-based, human
test_settings: Homo sapiens, DU-145; MTT, 48 h; unit given as M; read-out: IC50 prostate cancer (DU-145)
pIC50: −log10 of the molar value.
parameter_measured: pIC50

> print(dat)
                                compound  test.result
1  NS(=O)(=O)c1cccc(N/N=N/c2ccc(F)cc2)c1         4.54

###

Test system: normal prostate epithelium (PNT-1A) cells
method_description: MTT cytotoxicity assay, PNT-1A
Type: cell-based, human
test_settings: Homo sapiens, PNT1A, 48 h, unit given as M, read-out: IC50 normal prostate cells (PNT1-A)
parameter_measured: IC50 (µM)

> print(dat)
                                compound  test.result
1  NS(=O)(=O)c1cccc(N/N=N/c2ccc(F)cc2)c1          195
